Target: huFLT3-M227 stably expressed on Ramos cells (human) (UniProt P36888)
Sequence (P36888 27-993 T227M): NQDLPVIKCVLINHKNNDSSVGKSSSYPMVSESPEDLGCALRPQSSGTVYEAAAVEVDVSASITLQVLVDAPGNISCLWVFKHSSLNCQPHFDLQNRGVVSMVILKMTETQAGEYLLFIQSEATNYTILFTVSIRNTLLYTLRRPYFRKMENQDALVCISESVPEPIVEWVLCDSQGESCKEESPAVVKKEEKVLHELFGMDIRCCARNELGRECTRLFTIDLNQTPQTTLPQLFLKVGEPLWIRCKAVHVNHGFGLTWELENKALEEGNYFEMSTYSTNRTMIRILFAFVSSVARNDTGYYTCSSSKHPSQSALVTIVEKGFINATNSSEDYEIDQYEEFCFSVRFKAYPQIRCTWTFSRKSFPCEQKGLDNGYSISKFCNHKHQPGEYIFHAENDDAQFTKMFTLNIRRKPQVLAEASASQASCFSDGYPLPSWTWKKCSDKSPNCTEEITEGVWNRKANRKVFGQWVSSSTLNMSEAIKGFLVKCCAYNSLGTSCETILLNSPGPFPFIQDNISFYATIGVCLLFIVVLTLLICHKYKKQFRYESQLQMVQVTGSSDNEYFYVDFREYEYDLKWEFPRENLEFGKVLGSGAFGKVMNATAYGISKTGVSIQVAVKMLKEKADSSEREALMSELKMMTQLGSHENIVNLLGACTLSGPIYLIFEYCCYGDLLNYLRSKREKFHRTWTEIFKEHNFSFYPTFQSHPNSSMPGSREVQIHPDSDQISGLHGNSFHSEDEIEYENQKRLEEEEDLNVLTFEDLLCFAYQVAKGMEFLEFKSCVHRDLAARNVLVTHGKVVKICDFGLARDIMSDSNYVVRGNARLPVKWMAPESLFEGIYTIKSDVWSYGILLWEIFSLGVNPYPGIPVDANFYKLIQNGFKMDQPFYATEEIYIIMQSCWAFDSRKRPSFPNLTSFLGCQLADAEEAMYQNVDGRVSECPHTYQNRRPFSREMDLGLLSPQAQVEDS
Test: FACS on cells
experimental-readout: FACS geometric mean fold change over Jurkat parental

binder | result
Polypeptide No. 258 (scFv, V domains shown) VH: QVQLVQSGAEVKKPGASVKVSCKASGGTFGSYAISWVRQAPGQGLEWMGWINPNTGGAHYAQKFQGRVTMTRDTSTSTVYMELSSLRSEDTAVYYCARVGAAAGYQHWGQGTLVTVSS VL: DIQMTQSPSSLSASVGDRVTITCRASQSIKGALAWYQQKPGKAPKLLIYSASNLQSGVPSRFSGSGSGTDFTLTISSLQPEDFATYYCQQYNSYPLTFGGGTKVEIKR | < 2 fold
